- study_target: mouse SMO^W535L (Mus musculus, UniProt P56726, W539L)
- Construct: expressed in transfected cells
- Sequence (P56726 33-793 W539L): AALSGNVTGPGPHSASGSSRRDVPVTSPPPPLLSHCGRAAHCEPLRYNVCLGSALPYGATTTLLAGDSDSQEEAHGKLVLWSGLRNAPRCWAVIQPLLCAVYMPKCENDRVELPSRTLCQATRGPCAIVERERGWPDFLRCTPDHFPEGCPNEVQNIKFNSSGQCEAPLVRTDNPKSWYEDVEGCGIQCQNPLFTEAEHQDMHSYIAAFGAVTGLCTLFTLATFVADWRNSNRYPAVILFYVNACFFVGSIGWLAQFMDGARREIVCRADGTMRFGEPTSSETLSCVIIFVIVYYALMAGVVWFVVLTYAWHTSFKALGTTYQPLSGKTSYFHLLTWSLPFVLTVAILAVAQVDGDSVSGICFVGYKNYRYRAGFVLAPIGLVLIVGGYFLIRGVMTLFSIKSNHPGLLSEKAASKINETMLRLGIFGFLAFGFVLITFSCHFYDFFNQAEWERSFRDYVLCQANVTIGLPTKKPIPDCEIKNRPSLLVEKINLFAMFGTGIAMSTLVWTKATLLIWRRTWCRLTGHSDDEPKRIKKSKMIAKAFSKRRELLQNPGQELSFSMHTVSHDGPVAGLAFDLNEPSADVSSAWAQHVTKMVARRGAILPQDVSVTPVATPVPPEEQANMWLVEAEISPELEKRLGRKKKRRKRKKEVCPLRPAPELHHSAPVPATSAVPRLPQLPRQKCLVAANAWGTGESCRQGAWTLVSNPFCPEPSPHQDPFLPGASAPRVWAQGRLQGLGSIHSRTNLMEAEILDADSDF
- procedure_summary: Mouse assay: Gli1 qPCR in MEF cells stably expressing mouse SMO W535L
- Type: cell-based
- condition_summary: mSHh-treated, 24 hours, percentage Gli1 inhibition
Classify by Mouse W535L % Inh. Ranges: LOW: < 60%; MEDIUM: ≥ 60% and < 70%; HIGH: ≥ 70%

Consider the worked cases shown below.
Cl.Cn1nc(-c2ccc(NC(=O)c3cccc(CN4CCS(=O)(=O)CC4)c3)cc2)nc1C1CC1 = HIGH
O=C(Nc1ccc(-c2nc(Cc3cc(Cl)ccc3Cl)n[nH]2)cc1)c1cccc(CN2CCS(=O)(=O)CC2)c1 = MEDIUM
O=C(Nc1ccc(-c2nc(Cc3ccccc3)n[nH]2)cc1)c1cccc(CN2CCS(=O)(=O)CC2)c1 = LOW
Cc1ccc(Cc2nc(-c3ccc(NC(=O)c4cccc(CN5CCS(=O)(=O)CC5)c4)cc3)no2)cc1 = HIGH
O=C(Nc1ccc(-c2nc(Cc3ccc(Br)cc3)n[nH]2)cc1)c1cccc(CN2CCS(=O)(=O)CC2)c1 = HIGH

**Query** Please indicate the class for "O=C(Nc1ccc(-c2cc(C3CC3)on2)cc1)c1cccc(CN2CCS(=O)(=O)CC2)c1" based on its Mouse W535L % Inh.
**Result** HIGH

**Query** Which class does "O=C(Nc1ccc(-c2nc(C3CCCC3)n[nH]2)cc1)c1cccc(CN2CCS(=O)(=O)CC2)c1" fall in?
**Result** LOW

**Query** State the class of the compound shown: "O=C(Nc1ccc(-c2nc(Cc3cccc(F)c3)n[nH]2)cc1)c1cccc(CN2CCS(=O)(=O)CC2)c1"
**Result** MEDIUM

**Query** Bin this entry: "Cc1ccc(Cc2n[nH]c(-c3ccc(NC(=O)c4cccc(CN5CCS(=O)(=O)CC5)c4)cc3)n2)cc1C"
**Result** HIGH

**Query** Category of "O=C(Nc1ccc(-c2noc(C3CCCC3)n2)cc1)c1cccc(CN2CCS(=O)(=O)CC2)c1" :
**Result** HIGH

**Query** Note: place this compound into its band. Item: "O=C(Nc1ccc(-c2nc(Cc3ccc(F)cc3)n[nH]2)cc1)c1cccc(CN2CCS(=O)(=O)CC2)c1"
**Result** MEDIUM

**Query** Form field 'band' for "O=C(Nc1ccc(-c2nc(C3CC3)n[nH]2)cc1)c1cccc(CN2CCS(=O)(=O)CC2)c1"
**Result** MEDIUM
